target: Serine/threonine-protein kinase MRCK alpha (Homo sapiens) (UniProt Q5VT25); conditions: at 0.1 µM;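 also: each inhibition figure is a mean value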
Sequence (Q5VT25 whole entry): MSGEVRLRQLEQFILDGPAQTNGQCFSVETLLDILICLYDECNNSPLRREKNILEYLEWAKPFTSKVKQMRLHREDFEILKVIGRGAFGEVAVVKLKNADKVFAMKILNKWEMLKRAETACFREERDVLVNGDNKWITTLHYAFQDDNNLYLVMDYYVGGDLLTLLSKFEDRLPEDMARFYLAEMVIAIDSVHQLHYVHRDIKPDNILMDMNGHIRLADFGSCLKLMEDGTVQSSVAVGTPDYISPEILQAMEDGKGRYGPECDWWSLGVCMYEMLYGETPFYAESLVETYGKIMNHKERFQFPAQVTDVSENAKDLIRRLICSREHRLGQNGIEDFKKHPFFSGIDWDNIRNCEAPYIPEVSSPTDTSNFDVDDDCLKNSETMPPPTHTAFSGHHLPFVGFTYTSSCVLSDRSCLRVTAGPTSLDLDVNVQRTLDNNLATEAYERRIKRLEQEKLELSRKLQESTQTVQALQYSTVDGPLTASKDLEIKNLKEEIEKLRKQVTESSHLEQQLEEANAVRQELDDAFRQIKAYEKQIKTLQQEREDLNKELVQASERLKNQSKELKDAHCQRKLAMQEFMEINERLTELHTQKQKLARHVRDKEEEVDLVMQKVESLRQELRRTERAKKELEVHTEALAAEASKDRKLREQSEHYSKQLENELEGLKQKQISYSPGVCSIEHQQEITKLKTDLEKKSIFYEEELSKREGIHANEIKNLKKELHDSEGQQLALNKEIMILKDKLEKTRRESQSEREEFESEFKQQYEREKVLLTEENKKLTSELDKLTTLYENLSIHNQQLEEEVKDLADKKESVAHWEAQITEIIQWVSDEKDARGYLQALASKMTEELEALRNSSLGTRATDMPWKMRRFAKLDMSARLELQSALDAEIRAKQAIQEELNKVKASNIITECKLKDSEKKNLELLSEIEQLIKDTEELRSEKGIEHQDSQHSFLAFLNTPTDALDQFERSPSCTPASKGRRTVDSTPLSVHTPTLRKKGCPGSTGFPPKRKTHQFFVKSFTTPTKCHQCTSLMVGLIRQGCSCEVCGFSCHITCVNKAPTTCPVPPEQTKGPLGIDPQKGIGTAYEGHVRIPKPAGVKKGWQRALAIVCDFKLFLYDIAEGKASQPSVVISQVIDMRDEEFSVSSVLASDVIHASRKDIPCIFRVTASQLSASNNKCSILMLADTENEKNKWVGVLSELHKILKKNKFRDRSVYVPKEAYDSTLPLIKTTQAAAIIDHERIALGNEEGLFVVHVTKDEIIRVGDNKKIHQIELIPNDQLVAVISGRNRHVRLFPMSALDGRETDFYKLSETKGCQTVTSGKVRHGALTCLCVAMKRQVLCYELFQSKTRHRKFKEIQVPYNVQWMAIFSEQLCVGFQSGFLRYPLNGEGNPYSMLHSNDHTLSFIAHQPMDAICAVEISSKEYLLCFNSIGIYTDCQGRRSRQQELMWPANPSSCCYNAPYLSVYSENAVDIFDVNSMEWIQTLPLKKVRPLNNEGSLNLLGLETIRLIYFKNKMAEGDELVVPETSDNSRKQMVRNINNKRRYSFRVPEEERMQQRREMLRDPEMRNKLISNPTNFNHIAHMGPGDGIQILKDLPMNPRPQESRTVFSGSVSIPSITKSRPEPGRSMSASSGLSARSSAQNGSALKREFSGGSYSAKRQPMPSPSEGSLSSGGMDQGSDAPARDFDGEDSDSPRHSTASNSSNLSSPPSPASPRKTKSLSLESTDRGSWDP
OUTCOME_MEASURE: inhibition (%)

INSERT INTO measurements (structure_notation, measured_number) VALUES
  ('CS(=O)(=O)CCNCc1ccc(-c2ccc3ncnc(Nc4ccc(OCc5cccc(F)c5)c(C(F)(F)F)c4)c3c2)o1', -0.31),
  ('N#Cc1c(NC(=O)c2cccc3ccccc23)sc2c1CCCC2', -0.22),
  ('CCc1cccc(NC(=O)Nc2ccc(Oc3ccc4nc(NC(=O)OC)[nH]c4c3)cc2)c1', 1.75);

###

target: Misshapen-like kinase 1 (Homo sapiens); settings: at 1 µM
Description: GSK_PKIS: MINK mean inhibition at 1 uM [Nanosyn]
inhibition: recorded values
OUTCOME_MEASURE: inhibition (%)

INSERT INTO assay_data (molecule, measured_number) VALUES
  ('NS(=O)(=O)c1cccc(-c2ccc3c(NC(=O)C4CC4)n[nH]c3c2)c1', 8.09),
  ('COC(=O)Nc1nc2cc(Oc3ccc(NC(=O)Nc4cccc(C(=O)O)c4)cc3)ccc2[nH]1', 4.38),
  ('N#Cc1c(NC(=O)c2cccc3ccccc23)sc2c1CCCC2', 11.1),
  ('COc1ccc(-c2nn3ncccc3c2-c2ccnc(Nc3ccc(Cl)c(C(F)(F)F)c3)n2)cc1', 10.2),
  ('CCn1c(-c2nonc2N)nc2c(C#CC(C)(C)O)nc(CN3CCCC3)cc21', 0.35),
  ('O=C1NC(=O)C(N2CCc3ccccc32)=C1c1ccc(Cl)cc1', 10.3),
  ('CNC(=O)c1cncc(/C=C/c2c(Cl)cccc2Cl)c1', 19.3),
  ('CC1=C(C(=O)Nc2ccc3[nH]ncc3c2)C(c2ccc(Cl)c(Cl)c2)CC(=O)N1 (stereo unspecified)', 1.98),
  ('CC(C)=Cc1cccc2c1/C(=N/Nc1ccc(S(N)(=O)=O)cc1)C(=O)N2', 25.1),
  ('CC1=C(C(=O)Nc2ccc3[nH]ncc3c2)C(c2ccc(F)cc2)NC(=O)N1 (stereo unspecified)', 13),
  ('COc1ccc2cc(-c3c(-c4ccncc4)nc(-c4ccc([S+](C)[O-])cc4)n3C)ccc2c1 (stereo unspecified)', 9.34);

###

inhibition: recorded values
molecular target: Serine/threonine-protein kinase Nek6 (Homo sapiens); conditions: at 1 µM;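 also: values are mean inhibition of NEK6 from the GSK PKIS screen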
OUTCOME_MEASURE: inhibition (%)

INSERT INTO results (compound, assay_target, measured_number) VALUES
  ('CC(C)=Cc1cccc2c1/C(=N/Nc1ccc(S(N)(=O)=O)cc1)C(=O)N2', 'Serine/threonine-protein kinase Nek6 (Homo sapiens)', 0.97),
  ('Nc1nc(-c2ccc3c(c2)C(=Cc2cc(Br)c(O)c(Br)c2)C(=O)N3)cs1', 'Serine/threonine-protein kinase Nek6 (Homo sapiens)', 3.09),
  ('COC(=O)Nc1nc2cc(Oc3cccc(NC(=O)Nc4cc(C(F)(F)F)ccc4F)c3)ccc2[nH]1', 'Serine/threonine-protein kinase Nek6 (Homo sapiens)', 0.11),
  ('COc1ccc2cc(-c3c(-c4ccncc4)nc(-c4ccc([S+](C)[O-])cc4)n3C)ccc2c1 (stereo not given)', 'Serine/threonine-protein kinase Nek6 (Homo sapiens)', -1.38),
  ('COc1ccc(-c2coc3ncnc(N)c23)cc1', 'Serine/threonine-protein kinase Nek6 (Homo sapiens)', 2.31);

###

Biological target: Non-receptor tyrosine-protein kinase TNK1 (Homo sapiens) (UniProt Q13470);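 also: reported values are mean inhibition figures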
Sequence (whole entry): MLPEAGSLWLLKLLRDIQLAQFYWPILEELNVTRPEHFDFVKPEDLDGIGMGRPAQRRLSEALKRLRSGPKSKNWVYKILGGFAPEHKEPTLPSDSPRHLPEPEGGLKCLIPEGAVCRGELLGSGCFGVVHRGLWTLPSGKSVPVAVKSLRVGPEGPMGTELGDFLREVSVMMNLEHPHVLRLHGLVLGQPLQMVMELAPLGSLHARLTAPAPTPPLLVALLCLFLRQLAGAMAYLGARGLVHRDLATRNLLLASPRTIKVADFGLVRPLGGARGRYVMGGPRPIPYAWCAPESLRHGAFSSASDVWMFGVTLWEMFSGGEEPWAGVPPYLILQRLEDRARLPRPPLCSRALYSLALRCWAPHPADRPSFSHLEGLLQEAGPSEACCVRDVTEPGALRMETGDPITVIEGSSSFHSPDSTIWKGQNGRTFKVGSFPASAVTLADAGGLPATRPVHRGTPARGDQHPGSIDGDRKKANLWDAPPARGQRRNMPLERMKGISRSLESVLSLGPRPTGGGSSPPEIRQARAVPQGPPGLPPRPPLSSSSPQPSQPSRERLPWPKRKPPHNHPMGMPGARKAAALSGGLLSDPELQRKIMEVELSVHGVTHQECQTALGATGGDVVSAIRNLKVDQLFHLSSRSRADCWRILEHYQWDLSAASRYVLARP
Settings: at 0.1 µM
OUTCOME_MEASURE: inhibition

INSERT INTO assay_data (compound, result) VALUES
  ('Fc1cccc(COc2ccc(Nc3ncnc4cc(-c5ccc[nH]5)sc34)cc2Cl)c1', '1.22%'),
  ('Nc1nc(-c2ccc3c(c2)C(=Cc2cc(Br)c(O)c(Br)c2)C(=O)N3)cs1', '0.05%'),
  ('COC(=O)Nc1nc2cc(Oc3cccc(NC(=O)Nc4cc(C(F)(F)F)ccc4F)c3)ccc2[nH]1', '-0.45%'),
  ('Cc1nn(C)c2cc(N(C)c3ccnc(Nc4cccc(S(N)(=O)=O)c4)n3)ccc12', '30%'),
  ('CC1=C(C(=O)Nc2ccc3[nH]ncc3c2)C(c2ccc(Cl)c(Cl)c2)CC(=O)N1 (stereo unspecified)', '-0.39%'),
  ('CC(=O)Nc1cccc(C#Cc2cncnc2Nc2ccc(OCc3cccc(F)c3)c(Cl)c2)n1', '-0.47%'),
  ('Cc1ccc(NC(=O)c2ccnc(N3CCCC3)c2)cc1-c1ccc(C(=O)NCC2CC2)cc1', '2.43%'),
  ('CS(=O)(=O)CCN(CC#N)Cc1ccc(-c2ccc3ncnc(Nc4ccc(OCc5cccc(F)c5)c(Cl)c4)c3c2)o1', '2.76%'),
  ('CCn1c(-c2nonc2N)nc2c(N3CCCC3)nccc21', '-3.68%'),
  ('Nc1ncnc2occ(-c3ccc(NC(=O)Nc4cccc(C(F)(F)F)c4)cc3)c12', '7.73%'),
  ('CCn1c(-c2nonc2N)nc2c(C#CC(C)(C)O)nc(OC[C@@H](N)c3ccccc3)cc21', '-2.6%'),
  ('CCCN1CCC=C(c2ccc(Nc3nc(Nc4ccccc4C(N)=O)c4cc[nH]c4n3)c(C)c2)C1', '26.4%'),
  ('NCc1ccc(-c2nc(-c3ccc(Cl)c(O)c3)c(-c3ccncc3)[nH]2)cc1', '-1.81%'),
  ('O=C(Nc1n[nH]c2nc(-c3ccco3)c(Br)cc12)C1CC1', '2.22%'),
  ('Cc1ccc(C(=O)NC2CCCCC2)cc1-c1ccc(C(=O)NCC2CC2)cc1', '0.56%'),
  ('CS(=O)(=O)CCNCc1ccc(-c2ccc3ncnc(Nc4ccc(OCc5cccc(F)c5)c(C(F)(F)F)c4)c3c2)o1', '4.87%');
